- target: ActRIIA and ActRIIB (on TGFB/SMAD SBE Reporter HEK293 cells) (human)
- Sequence (chain, as listed by the source, chain 1 of 2): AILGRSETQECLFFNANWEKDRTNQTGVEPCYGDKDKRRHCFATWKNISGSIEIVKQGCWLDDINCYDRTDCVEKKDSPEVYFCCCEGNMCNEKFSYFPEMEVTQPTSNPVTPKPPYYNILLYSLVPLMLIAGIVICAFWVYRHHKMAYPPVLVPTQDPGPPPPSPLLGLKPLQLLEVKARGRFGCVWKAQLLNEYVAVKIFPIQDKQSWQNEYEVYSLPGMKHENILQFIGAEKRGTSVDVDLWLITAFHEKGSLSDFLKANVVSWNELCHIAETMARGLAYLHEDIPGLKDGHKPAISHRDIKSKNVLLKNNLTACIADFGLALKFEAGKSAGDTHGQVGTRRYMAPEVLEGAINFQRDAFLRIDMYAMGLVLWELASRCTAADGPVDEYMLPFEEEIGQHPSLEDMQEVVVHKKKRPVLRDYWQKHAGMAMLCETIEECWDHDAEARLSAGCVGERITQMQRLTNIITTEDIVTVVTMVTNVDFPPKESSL
- Sequence (chain, as listed by the source, chain 2 of 2): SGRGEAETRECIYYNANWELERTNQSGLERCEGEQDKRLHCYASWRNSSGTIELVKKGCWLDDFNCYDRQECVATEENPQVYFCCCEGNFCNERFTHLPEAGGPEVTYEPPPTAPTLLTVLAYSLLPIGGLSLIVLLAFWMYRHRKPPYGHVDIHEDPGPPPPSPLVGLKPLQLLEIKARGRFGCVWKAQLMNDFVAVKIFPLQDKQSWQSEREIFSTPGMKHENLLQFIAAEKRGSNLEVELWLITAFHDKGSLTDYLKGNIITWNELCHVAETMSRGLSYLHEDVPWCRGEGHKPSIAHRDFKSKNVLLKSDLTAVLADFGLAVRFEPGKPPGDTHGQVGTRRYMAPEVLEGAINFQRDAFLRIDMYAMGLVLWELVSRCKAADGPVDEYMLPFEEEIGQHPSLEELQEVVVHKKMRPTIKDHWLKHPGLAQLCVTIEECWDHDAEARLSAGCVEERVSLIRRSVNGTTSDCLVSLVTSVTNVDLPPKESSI
- method.summary: cell-based or functional assay
Lab note: cut-off is 600 pM. Strictly less in IC50, Myostatin SMAD RGA is yes (1). Exactly 600 pM or more is no (0).

Q: Report whether reported IC50, Myostatin SMAD RGA is lower than 600 pM (strictly) for Antibody Biiramooscht (antibody, V domains shown, full-length IgG) VH: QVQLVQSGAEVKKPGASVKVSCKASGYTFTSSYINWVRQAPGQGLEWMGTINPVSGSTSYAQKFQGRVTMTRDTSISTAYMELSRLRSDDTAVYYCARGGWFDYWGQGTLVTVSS VL: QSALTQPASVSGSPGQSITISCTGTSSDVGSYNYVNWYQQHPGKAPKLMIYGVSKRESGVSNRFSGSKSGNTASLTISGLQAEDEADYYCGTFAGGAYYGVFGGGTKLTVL
Result: yes (1)

Q: Repeat with Rippla Fab (Fab, V domains shown, Fab) VH: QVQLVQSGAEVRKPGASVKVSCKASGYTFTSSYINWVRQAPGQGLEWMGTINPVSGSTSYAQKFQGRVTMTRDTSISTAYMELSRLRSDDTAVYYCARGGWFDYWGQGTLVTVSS VL: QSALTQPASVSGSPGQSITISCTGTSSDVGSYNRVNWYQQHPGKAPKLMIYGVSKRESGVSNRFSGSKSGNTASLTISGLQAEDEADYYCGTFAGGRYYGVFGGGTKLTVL
Result: no (0)

Q: Repeat for the following binder: Antibody Fasnetsküchla (antibody, V domains shown, full-length IgG) VH: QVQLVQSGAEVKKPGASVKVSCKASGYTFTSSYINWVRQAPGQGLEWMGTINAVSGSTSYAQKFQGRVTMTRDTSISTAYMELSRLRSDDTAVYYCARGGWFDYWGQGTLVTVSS VL: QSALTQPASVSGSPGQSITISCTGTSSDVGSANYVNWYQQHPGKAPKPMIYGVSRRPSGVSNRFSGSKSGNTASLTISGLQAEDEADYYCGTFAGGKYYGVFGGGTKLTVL
Result: yes (1)

Q: Queued: Antibody Ochsamaulsalat (antibody, V domains shown, full-length IgG) VH: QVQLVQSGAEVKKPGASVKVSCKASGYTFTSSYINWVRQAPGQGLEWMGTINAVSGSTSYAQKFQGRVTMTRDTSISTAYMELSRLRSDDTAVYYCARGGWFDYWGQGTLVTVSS VL: QSALTQPASVSGSPGQSITISCTGTSSDVGSRNYVNWYQQHPGKAPKLMIYGVSKRESGVSNRFSGSKSGNTASLTISGLQAEDEADYYCGTFAGGDYYGVFGGGTKLTVL
Result: yes (1)

Q: Queued: Hefaknöpfla Fab (Fab, V domains shown, Fab) VH: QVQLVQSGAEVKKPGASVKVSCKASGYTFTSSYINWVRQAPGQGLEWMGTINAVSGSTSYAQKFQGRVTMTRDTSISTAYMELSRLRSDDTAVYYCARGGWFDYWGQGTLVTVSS VL: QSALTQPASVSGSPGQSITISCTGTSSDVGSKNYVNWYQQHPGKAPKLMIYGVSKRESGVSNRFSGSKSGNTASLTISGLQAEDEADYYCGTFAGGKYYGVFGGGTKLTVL
Result: no (0)
